Values were extracted from paper PMC11583631.

Tested on: bacterial tyrosinase enzyme
Assay: in vitro bacterial tyrosinase inhibition assay
Format: biochemical
Settings: L-tyrosine substrate, 37 °C, absorbance 475 nm
Examples of compounds with documented Percentage inhibition follow.
I'd appreciate a reply containing only the number, no unit.

Completed entries (count: 6):
>>> recorded_value("O=C(CSc1nnc(-c2cc3c(ccc4ccccc43)o2)n1-c1ccccc1)Nc1ccccc1Cl [20f]")
32.34
>>> recorded_value("CCCCc1ccc(NC(=O)CSc2nnc(-c3cc4c(ccc5ccccc54)o3)n2-c2ccccc2)cc1 [20a]")
22.84
>>> recorded_value("CCNC(=O)CSc1nnc(-c2cc3c(ccc4ccccc43)o2)n1-c1ccccc1 [20c]")
22.62
>>> recorded_value("O=C(CSc1nnc(-c2cc3c(ccc4ccccc43)o2)n1-c1ccccc1)N1CCOCC1 [20i]")
30.55
>>> recorded_value("O=C(CSc1nnc(-c2cc3c(ccc4ccccc43)o2)n1-c1ccccc1)Nc1ccc(F)cc1 [20h]")
13.92
>>> recorded_value("O=C1O[C@H]([C@@H](O)CO)C(O)=C1O [Ascorbic acid, reference compound]")
58.66

Ask: For bacterial tyrosinase enzyme, provide Percentage inhibition of Cc1ccc(C)c(NC(=O)CSc2nnc(-c3cc4c(ccc5ccccc54)o3)n2-c2ccccc2)c1 [20b] please.
Result: 31.40

Ask: For bacterial tyrosinase enzyme, provide Percentage inhibition of COc1ccccc1NC(=O)CSc1nnc(-c2cc3c(ccc4ccccc43)o2)n1-c1ccccc1 [20g] please.
Result: 5.40
